- EXPERIMENTAL SYSTEM: human renalase (Homo sapiens)
- Sequence (Q5VYX0 18-342): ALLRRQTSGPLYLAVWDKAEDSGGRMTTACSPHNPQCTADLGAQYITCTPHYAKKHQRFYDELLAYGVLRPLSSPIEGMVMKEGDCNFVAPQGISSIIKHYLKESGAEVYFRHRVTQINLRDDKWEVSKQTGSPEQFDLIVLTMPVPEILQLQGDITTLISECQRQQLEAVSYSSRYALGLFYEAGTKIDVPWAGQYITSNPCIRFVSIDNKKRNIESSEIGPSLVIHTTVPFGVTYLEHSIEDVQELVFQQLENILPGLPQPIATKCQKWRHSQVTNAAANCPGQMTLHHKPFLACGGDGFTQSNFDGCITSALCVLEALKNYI
ASSAY READOUT: pKd
Remember the convention: pKd equals -log10 of concentration in molar.

Request the reported pKd associated with Nc1ncnc2c1ncn2[C@@H]1O[C@H](COP(=O)(O)OP(=O)(O)O)[C@@H](O)[C@H]1O [ADP, adenosine diphosphate]
1.82

* * *

- EXPERIMENTAL SYSTEM: UniProt Q5VYX0
- Assay type: biochemical, H. sapiens
- TEST CONTEXT: HsRen, 173 µM 6DHNAD, anaerobic
ASSAY READOUT: inhibition of 6DHNAD oxidation (reductive half reaction)

[
  {
    "MOLECULE": "NC(=O)C1=CN([C@@H]2O[C@H](COP(=O)(O)O)[C@@H](O)[C@H]2O)C=CC1 [4DHNMN, 4-dihydronicotinamide mononucleotide]",
    "READING": "inhibitory"
  },
  {
    "MOLECULE": "NC(=O)C1=CN([C@@H]2O[C@H](CO)[C@@H](O)[C@H]2O)C=CC1 [4DHNR, 4-dihydronicotinamide riboside]",
    "READING": "inhibitory"
  }
]

Values from paper PMC5522708
